# maps each entry to its IC50
Biological target: T1, Human PD-1 (Swiss-Prot entry Q15116), full length, on cells (human, UniProt Q15116 21-288)
T1 construct: Full length open reading frame of hPD-1 stably expressed on CHO-K1 cells; also endogenous PD-1 on CD3/CD28-stimulated human CD3+ T cells and PD-1 on transfected Jurkat cells; also called hPD-1; hPDCD1
T1 sequence (Q15116 21-288, one chain of several): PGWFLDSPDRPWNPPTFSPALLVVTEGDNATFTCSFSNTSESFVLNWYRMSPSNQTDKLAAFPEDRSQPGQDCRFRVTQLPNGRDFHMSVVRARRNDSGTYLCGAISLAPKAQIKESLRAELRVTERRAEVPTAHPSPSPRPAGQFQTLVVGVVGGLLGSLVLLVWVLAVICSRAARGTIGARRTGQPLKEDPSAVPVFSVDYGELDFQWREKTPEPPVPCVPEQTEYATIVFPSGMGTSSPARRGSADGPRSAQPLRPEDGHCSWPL
Experiment: CELISA on CHO-K1.hPDCD1 cells; blocking of biotinylated hPD-L1 Fc
All answers are understood in nM, so give the number only.

* hPD1.29H5_A9P_K12V_I28T_T31S_L4 (antibody, V domains shown, Mutant of hPD1.29H5L4 (human IgG4 S241P kappa format of the parent)) VH: EVQLVQSGPEVVKPGASVKVSCKASGYTFTSYYIHWVKQAPGKGLEWIGWIFPGDVSTQYNEKFQDKATITVDKSASTAYMQLSSLRSEDTAVYYCTREAYDYAVYWGQGTLVTVSS VL: DIQMTQAPSSLSASVGDRVTITCKASQNVDTNVAWFQQKPGKAPKSLIFSASYRYSGVPSRFSGSGSGTDFTLTISSLQPEDFATYYCQQYNNYPFTFGGGTKLEIK | 1.2
* hPD1.29H5_K12V_L4 (antibody, V domains shown, Mutant of hPD1.29H5L4 (human IgG4 S241P kappa format of the parent)) VH: EVQLVQSGAEVVKPGASVKVSCKASGYIFTTYYIHWVKQAPGKGLEWIGWIFPGDVSTQYNEKFQDKATITVDKSASTAYMQLSSLRSEDTAVYYCTREAYDYAVYWGQGTLVTVSS VL: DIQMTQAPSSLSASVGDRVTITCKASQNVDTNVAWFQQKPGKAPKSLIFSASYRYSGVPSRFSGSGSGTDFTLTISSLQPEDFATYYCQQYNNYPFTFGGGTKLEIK | 1.4
* hPD1.29H5_A9P_L4 (antibody, V domains shown, Mutant of hPD1.29H5L4 (human IgG4 S241P kappa format of the parent)) VH: EVQLVQSGPEVKKPGASVKVSCKASGYIFTTYYIHWVKQAPGKGLEWIGWIFPGDVSTQYNEKFQDKATITVDKSASTAYMQLSSLRSEDTAVYYCTREAYDYAVYWGQGTLVTVSS VL: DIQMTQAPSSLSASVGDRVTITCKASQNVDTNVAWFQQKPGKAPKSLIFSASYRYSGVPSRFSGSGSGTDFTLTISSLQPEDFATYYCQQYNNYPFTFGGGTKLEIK | 1.4
* hPD1.29H5_I28T_T31S_L4 (antibody, V domains shown, Mutant of hPD1.29H5L4 (human IgG4 S241P kappa format of the parent)) VH: EVQLVQSGAEVKKPGASVKVSCKASGYTFTSYYIHWVKQAPGKGLEWIGWIFPGDVSTQYNEKFQDKATITVDKSASTAYMQLSSLRSEDTAVYYCTREAYDYAVYWGQGTLVTVSS VL: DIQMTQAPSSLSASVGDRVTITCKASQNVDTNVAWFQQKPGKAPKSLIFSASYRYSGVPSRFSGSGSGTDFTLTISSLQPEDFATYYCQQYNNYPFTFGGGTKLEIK | 1.1

Could you tell me which IC50 is on file for hPD1.29H5_A9P_I28T_T31S_L4 (antibody, V domains shown, Mutant of hPD1.29H5L4 (human IgG4 S241P kappa format of the parent)) VH: EVQLVQSGPEVKKPGASVKVSCKASGYTFTSYYIHWVKQAPGKGLEWIGWIFPGDVSTQYNEKFQDKATITVDKSASTAYMQLSSLRSEDTAVYYCTREAYDYAVYWGQGTLVTVSS VL: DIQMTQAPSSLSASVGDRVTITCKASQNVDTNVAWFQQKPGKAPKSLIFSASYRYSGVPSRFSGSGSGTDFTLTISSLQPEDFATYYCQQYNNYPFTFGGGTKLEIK ?
1.2
